- Assay target: JAK1 (Homo sapiens (Human), UniProt P23458)
- Sequence (P23458 whole entry): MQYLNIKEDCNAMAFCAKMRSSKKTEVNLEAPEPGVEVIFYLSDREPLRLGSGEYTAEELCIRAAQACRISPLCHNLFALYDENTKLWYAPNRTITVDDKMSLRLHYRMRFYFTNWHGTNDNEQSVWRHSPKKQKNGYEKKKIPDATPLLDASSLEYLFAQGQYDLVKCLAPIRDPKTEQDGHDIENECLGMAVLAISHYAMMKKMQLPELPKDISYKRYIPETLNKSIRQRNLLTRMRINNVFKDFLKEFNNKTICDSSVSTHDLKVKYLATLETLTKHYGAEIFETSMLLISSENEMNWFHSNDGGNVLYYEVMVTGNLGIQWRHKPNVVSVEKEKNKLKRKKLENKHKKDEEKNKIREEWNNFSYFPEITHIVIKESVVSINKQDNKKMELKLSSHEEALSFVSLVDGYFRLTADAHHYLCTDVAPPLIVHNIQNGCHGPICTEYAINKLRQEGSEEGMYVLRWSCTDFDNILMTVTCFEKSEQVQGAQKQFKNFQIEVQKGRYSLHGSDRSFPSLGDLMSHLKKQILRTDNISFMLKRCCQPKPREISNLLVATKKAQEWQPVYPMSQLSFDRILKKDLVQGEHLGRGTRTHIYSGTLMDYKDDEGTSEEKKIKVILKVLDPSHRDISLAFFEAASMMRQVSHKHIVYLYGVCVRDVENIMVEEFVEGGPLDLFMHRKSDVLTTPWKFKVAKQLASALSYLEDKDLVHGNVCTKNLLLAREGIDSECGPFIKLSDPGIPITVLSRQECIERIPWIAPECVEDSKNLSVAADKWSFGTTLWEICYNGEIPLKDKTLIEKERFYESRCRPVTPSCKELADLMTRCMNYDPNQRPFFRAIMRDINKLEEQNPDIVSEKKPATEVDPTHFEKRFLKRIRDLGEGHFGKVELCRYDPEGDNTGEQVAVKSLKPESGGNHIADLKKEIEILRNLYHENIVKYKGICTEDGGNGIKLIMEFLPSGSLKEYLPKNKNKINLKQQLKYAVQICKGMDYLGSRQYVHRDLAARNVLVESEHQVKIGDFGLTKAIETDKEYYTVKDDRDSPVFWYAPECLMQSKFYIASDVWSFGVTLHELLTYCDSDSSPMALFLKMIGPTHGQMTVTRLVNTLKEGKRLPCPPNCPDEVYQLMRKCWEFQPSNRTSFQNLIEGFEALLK
- Experiment notes: JAK1 kinase inhibition
- Type: biochemical
- Measurement setup: read-out: JAK1 % inhibition at 1 μM
Attribute measured: inhibition at 1 µM (%)

{"columns": ["Molecule", "inhibition at 1 µM [%]"],
 "data": [
  ["Cc1ccc(NC(=O)c2cccc(C(F)(F)F)c2)cc1N1CCc2nc(Nc3ccncc3)ncc2C1 [Compound 15]", 73],
  ["Cc1ccc(NC(=O)c2cccc(C(F)(F)F)c2)cc1N1CCc2nc(Nc3ccnc(Cl)c3)ncc2C1 [Compound 25]", 96],
  ["Cc1ccc(NC(=O)c2cccc(C(F)(F)F)c2)cc1N1CCc2nc(Nc3ccc(C(=O)N4CCN(C)CC4)cc3)ncc2C1 [Compound 17]", 89],
  ["Cc1ccc(NC(=O)c2cccc(C(F)(F)F)c2)cc1N1CCc2nc(Nc3ccc(N4CCN(C)CC4)cc3)ncc2C1=O [Compound 45]", 82]
]}
